- experimental.protocol: Luminescence activity assay of purified Gaussia luciferase mutants on coelenterazine
- Format: biochemical
- Set-up: key: ratio of mutant luminescence intensity to wild-type Gaussia luciferase
- measurement.context: Substrate CTZ (Table 16)
readout.label: Activity of mutant relative to wild-type Gaussia luciferase without the signal peptide

{"columns": ["molecule", "reported.value"],
 "data": [
  ["H79K P84L S103T A104G E110A: Gaussia luciferase mutant (protein, SIGNAL (1)..(17), Gaussia luciferase mutant) MGVKVLFALICIAVAEAKPTENNEDFNIVAVASNFATTDLDADRGKLPGKKLPLEVLKEMEANARKAGCTRGCLICLSKIKCTLKMKKFIPGRCHTYEGDKETGQGGIGAAIVDIPEIPGFKDLEPMEQFIAQVDLCVDCTTGCLKGLANVQCSDLLKKWLPQRCATFASKIQGQVDKIKGAGGD", 1.921],
  ["A30G V31I A32V S33G A36N T37D L40R: Gaussia luciferase mutant (protein, SIGNAL (1)..(17), Gaussia luciferase mutant) MGVKVLFALICIAVAEAKPTENNEDFNIVGIVGNFNDTDRDADRGKLPGKKLPLEVLKEMEANARKAGCTRGCLICLSHIKCTPKMKKFIPGRCHTYEGDKESAQGGIGEAIVDIPEIPGFKDLEPMEQFIAQVDLCVDCTTGCLKGLANVQCSDLLKKWLPQRCATFASKIQGQVDKIKGAGGD", 0.138],
  ["K66N E102A S103T A104G E110G D123N L124M V138D K180: Gaussia luciferase mutant (protein) MGVKVLFALICIAVAEAKPTENNEDFNIVAVASNFATTDLDADRGKLPGKKLPLEVLKEMEANARNAGCTRGCLICLSHIKCTPKMKKFIPGRCHTYEGDKATGQGGIGGAIVDIPEIPGFKNMEPMEQFIAQVDLCDDCTTGCLKGLANVQCSDLLKKWLPQRCATFASKIQGQVDKIKGAGGD", 0.945],
  ["P84A E102S S103T A104G E110A L124M V138E: Gaussia luciferase mutant (protein, SIGNAL (1)..(17), Gaussia luciferase mutant) MGVKVLFALICIAVAEAKPTENNEDFNIVAVASNFATTDLDADRGKLPGKKLPLEVLKEMEANARKAGCTRGCLICLSHIKCTAKMKKFIPGRCHTYEGDKSTGQGGIGAAIVDIPEIPGFKDMEPMEQFIAQVDLCEDCTTGCLKGLANVQCSDLLKKWLPQRCATFASKIQGQVDKIKGAGGD", 0.375],
  ["Q152H Q163T T167S S170D G174K K178N A182Y G183N: Gaussia luciferase mutant (protein, SIGNAL (1)..(17), Gaussia luciferase mutant) MGVKVLFALICIAVAEAKPTENNEDFNIVAVASNFATTDLDADRGKLPGKKLPLEVLKEMEANARKAGCTRGCLICLSHIKCTPKMKKFIPGRCHTYEGDKESAQGGIGEAIVDIPEIPGFKDLEPMEQFIAQVDLCVDCTTGCLKGLANVHCSDLLKKWLPTRCASFADKIQKQVDNIKGYNGD", 0.079],
  ["F26R V29F A30D V31L S33G T37D L40A: Gaussia luciferase mutant (protein, SIGNAL (1)..(17), Gaussia luciferase mutant) MGVKVLFALICIAVAEAKPTENNEDRNIFDLAGNFADTDADADRGKLPGKKLPLEVLKEMEANARKAGCTRGCLICLSHIKCTPKMKKFIPGRCHTYEGDKESAQGGIGEAIVDIPEIPGFKDLEPMEQFIAQVDLCVDCTTGCLKGLANVQCSDLLKKWLPQRCATFASKIQGQVDKIKGAGGD", 1.017],
  ["N27Y V29G A30D V31L A32V S33V A36G T37D L40F Y97*: Gaussia luciferase mutant (protein, SIGNAL (1)..(17), Gaussia luciferase mutant) MGVKVLFALICIAVAEAKPTENNEDFYIGDLVVNFGDTDFDADRGKLPGKKLPLEVLKEMEANARKAGCTRGCLICLSHIKCTPKMKKFIPGRCHTEGDKESAQGGIGEAIVDIPEIPGFKDLEPMEQFIAQVDLCVDCTTGCLKGLANVQCSDLLKKWLPQRCATFASKIQGQVDKIKGAGGD", 0.000],
  ["Q152H Q163D S170N G174S Q175E D177S A182Y: Gaussia luciferase mutant (protein, SIGNAL (1)..(17), Gaussia luciferase mutant) MGVKVLFALICIAVAEAKPTENNEDFNIVAVASNFATTDLDADRGKLPGKKLPLEVLKEMEANARKAGCTRGCLICLSHIKCTPKMKKFIPGRCHTYEGDKESAQGGIGEAIVDIPEIPGFKDLEPMEQFIAQVDLCVDCTTGCLKGLANVHCSDLLKKWLPDRCATFANKIQSEVSKIKGYGGD", 1.007],
  ["Q163S T167S S170T G174N K178T: Gaussia luciferase mutant (protein, SIGNAL (1)..(17), Gaussia luciferase mutant) MGVKVLFALICIAVAEAKPTENNEDFNIVAVASNFATTDLDADRGKLPGKKLPLEVLKEMEANARKAGCTRGCLICLSHIKCTPKMKKFIPGRCHTYEGDKESAQGGIGEAIVDIPEIPGFKDLEPMEQFIAQVDLCVDCTTGCLKGLANVQCSDLLKKWLPSRCASFATKIQNQVDTIKGAGGD", 0.706]
]}
